Tested on: organ slice of cat cerebral cortex (cerebral edema)
TEST_DESCRIPTION: inhibition test on cerebral edema using organ slice of cat cerebral cortex (NaHCO3-stimulated swelling)
Assay type: cell-based
SETTINGS: relative to Compound A = 1
// Relative activity (Compound A = 1) lookup, one value per entry
Keep the answer to the number alone.

Prompt: Any idea what its Relative activity (Compound A = 1) is? The compound is CC1(C2CCCC2)Cc2cc(O[C@H]3CC[C@H](C(=O)O)C3)c(Cl)c(Cl)c2C1=O (relative stereo) [Ex. 2]
Completion: 12.8

Prompt: Any idea what its Relative activity (Compound A = 1) is? The compound is CC1(C2CCCC2)Cc2cc(S[C@H]3CC[C@H](C(=O)O)C3)c(Cl)c(Cl)c2C1=O (mixture of isomers)
Completion: 5.42

Prompt: Any idea what its Relative activity (Compound A = 1) is? The compound is CC1(C2CCCC2)Cc2cc(O[C@H]3CC[C@H](C(=O)O)C3)c(Cl)c(Cl)c2C1=O (mixture of isomers) [Ex. 2 (a)]
Completion: 21.3

Prompt: Any idea what its Relative activity (Compound A = 1) is? The compound is C[C@@]1(C2CCCC2)Cc2cc(O[C@H]3CC[C@H](C(=O)O)C3)c(Cl)c(Cl)c2C1=O
Completion: 20.0

* * *

TEST_DESCRIPTION: acute toxicity test
SETTINGS: in vivo, iv; administered intravenously
READOUT: LD50

Prompt: Any idea what its LD50 is? The molecule is CC1(C2CCCC2)Cc2cc(O[C@H]3CC[C@H](C(=O)O)C3)c(Cl)c(Cl)c2C1=O (mixture of isomers)
Completion: 200 to 400 mg/kg
